- Tested on: SNB-19 CNS
- Procedure Details: NCI-60 one-dose screen, 48 h
- Condition Description: 10 µM unless noted
About 83,000 compounds went through this panel and 20% of them were active in at least one assay; those are over-represented in the sample as a whole. Calls of active or inactive are those of the source. The calls were made as follows: active = growth percent below 10; inactive = the rest.
Outcome (select one): yes for active, no for inactive

Here are 3 compounds together with their reported answers.
* CC(=O)C(c1c(O)c2ccccc2oc1=O)c1cc(=O)oc2c1ccc1ccccc12 (stereo not given) | no
* O=C1CCC2(O)[C@@H]3Cc4ccc(O)c5c4[C@]2(CCN3Cc2ccoc2)C1O5 (stereo not given in full) | no
* Nc1cc2nc3ccccc3nc2cc1N | no

I would be grateful if you could indicate the recorded call for "C=C1C[C@](OC)([C@H](O)C(=O)N[C@@H](OC)[C@@H]2C[C@@H](O)C(C)(C)[C@@H](C[C@@H](COC)OC)O2)O[C@H](C)[C@@H]1C" .
yes

# lookup: test call for "N#C[Se]Cc1cc(-c2ccccc2)n(-c2ccc(S(N)(=O)=O)cc2)n1"
yes

Tell me the assay call for "Cn1cc(C=O)c2nccnc21" please.
no

Assay outcome for Cn1cccc1C1CC(=O)N(CCC[Se]C#N)C1=O (stereo not given) : what was it?
yes

# fetch the recorded call for "CCCc1cc(O)c2c3c(c(=O)oc2c1)CN(C)CC3" here
no

Hi, do you know how CC(=O)O[C@H](C[C@H](C(C)C)N(C)C(=O)[C@@H](NC(=O)[C@H]1CCCCN1C)C(C)C)c1nc(C(=O)NC2CCC(C(=O)O)CC2)cs1 (stereo not given in full) came out in this test?
no

Query: recorded result category for CCN(CC)c1ccc2c(c1)OC(N)=C(C#N)C2c1cc(OC)c2c(c1)OCO2 (stereo not given) in this test
no

How was CCCCCN(CCCCC)CC(O)c1cc(Cl)ccc1OC (stereo not given) classified in this test?
no

Lab log entry: "N#C[S-].[Au+].c1ccc(CN2[CH-]N(Cc3ccccc3)C(c3ccccc3)=C2c2ccccc2)cc1" — outcome as called in the assay?
no

The origin of these recorded values is PubChem BioAssay (NCI).
